Molecular target: Myoferlin (Homo sapiens, UniProt Q9NZM1)
Sequence (Q9NZM1 whole entry): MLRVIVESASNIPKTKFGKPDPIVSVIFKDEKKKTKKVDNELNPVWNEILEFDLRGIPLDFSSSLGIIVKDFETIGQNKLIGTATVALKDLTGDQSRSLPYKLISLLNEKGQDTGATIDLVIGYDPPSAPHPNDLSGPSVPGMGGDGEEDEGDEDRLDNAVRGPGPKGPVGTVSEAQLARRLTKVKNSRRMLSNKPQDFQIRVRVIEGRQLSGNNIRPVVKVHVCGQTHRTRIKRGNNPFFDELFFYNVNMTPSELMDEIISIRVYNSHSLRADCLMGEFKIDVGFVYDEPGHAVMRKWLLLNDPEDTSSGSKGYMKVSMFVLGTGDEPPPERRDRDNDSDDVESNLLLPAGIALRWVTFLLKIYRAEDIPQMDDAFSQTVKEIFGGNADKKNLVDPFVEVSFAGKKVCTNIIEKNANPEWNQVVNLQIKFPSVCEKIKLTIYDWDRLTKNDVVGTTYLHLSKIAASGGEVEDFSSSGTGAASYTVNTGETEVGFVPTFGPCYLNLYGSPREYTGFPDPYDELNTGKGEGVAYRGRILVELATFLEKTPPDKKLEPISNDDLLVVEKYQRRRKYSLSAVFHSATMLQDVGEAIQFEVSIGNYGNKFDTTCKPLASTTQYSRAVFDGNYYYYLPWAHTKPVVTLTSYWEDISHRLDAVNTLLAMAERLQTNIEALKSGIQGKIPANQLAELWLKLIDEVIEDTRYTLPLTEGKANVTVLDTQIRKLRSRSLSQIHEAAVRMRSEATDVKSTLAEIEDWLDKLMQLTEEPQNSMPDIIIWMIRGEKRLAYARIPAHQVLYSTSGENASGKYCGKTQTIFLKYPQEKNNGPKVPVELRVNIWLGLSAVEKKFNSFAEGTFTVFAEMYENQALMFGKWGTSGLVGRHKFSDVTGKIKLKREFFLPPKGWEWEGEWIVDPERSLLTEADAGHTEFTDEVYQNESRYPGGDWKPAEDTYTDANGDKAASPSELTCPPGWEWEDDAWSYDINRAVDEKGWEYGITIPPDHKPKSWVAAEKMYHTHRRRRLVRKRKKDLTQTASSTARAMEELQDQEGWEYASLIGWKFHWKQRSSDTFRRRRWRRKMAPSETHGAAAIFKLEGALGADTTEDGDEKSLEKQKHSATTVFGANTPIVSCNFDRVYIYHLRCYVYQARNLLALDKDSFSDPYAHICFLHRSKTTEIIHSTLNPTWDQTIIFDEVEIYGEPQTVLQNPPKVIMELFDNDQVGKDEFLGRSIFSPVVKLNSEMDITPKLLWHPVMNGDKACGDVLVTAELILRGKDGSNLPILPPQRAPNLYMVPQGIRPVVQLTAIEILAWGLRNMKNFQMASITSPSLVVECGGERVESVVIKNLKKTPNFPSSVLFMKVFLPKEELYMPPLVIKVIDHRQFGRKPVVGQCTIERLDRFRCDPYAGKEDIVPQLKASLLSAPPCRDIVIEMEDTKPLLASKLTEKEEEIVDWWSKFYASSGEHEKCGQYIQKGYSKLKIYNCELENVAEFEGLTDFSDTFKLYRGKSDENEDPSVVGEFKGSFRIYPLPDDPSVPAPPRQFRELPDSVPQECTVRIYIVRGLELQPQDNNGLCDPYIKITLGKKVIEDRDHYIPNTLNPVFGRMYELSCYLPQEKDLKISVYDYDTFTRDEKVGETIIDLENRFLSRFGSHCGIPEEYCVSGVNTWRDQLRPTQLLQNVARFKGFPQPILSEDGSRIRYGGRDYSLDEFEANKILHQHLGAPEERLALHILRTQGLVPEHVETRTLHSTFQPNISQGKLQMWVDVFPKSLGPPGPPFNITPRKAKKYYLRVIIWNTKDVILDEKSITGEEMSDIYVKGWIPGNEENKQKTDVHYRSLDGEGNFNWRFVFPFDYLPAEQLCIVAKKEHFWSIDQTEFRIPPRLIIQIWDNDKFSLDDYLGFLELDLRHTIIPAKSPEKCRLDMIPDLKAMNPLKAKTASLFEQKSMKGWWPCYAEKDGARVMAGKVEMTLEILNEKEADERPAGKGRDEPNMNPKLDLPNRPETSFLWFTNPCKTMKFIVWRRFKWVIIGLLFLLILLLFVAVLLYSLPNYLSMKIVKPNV
Assay: Binding affinity to human MYOF C2D by SPR method
assay endpoint: Kd (nM)

1) COc1ccccc1N1C(=O)CSC1c1cccc(C(=O)NCCCCc2ccccc2)c1 (stereo unspecified) :: 1330

* * *

The entries below are paired with their reported IC50.
System: MGC-803
Assay: Antiproliferative activity against human MGC-803 cells incubated for 48 hrs by SRB assay
Type: functional, cell-based
Conditions: MGC-803, 48 h
assay endpoint: IC50 (µM)

1. CCc1nc(-c2ccc(OC)cc2)n(-c2cccc(C(=O)NCCCCn3cc(Br)cn3)c2)n1 :: 4.38
2. CCc1nc(-c2ccc(OC)cc2)n(-c2cccc(C(=O)NCCCCn3ncc(Br)n3)c2)n1 :: 0.27
3. CCc1nc(-c2ccc(F)cc2)n(-c2cccc(C(=O)NCCCCn3nccn3)c2)n1 :: 1.37
4. CCc1nc(-c2ccc(O)cc2)n(-c2cccc(C(=O)NCCCCn3nccn3)c2)n1 :: 0.94
5. CCc1nc(-c2ccc(OC)cc2)n(-c2cccc(C(=O)NCCCCCn3nccn3)c2)n1 :: 2.12
6. CCc1nc(-c2ccc(OC)nc2)n(-c2cccc(C(=O)NCCCCn3nccn3)c2)n1 :: 7.87
7. CCc1nc(-c2ccc(OC)cc2)n(-c2cccc(C(=O)NCCCCn3cc(F)cn3)c2)n1 :: 10.8
8. CCCc1ccc(-c2nc(CC)nn2-c2cccc(C(=O)NCCCCn3nccn3)c2)cc1 :: 4.07
9. CCc1ccc(-c2nc(CC)nn2-c2cccc(C(=O)NCCCCn3nccn3)c2)cc1 :: 1.01
10. CCc1nc(-c2cccc(OC)c2)n(-c2cccc(C(=O)NCCCCn3nccn3)c2)n1 :: 7.29
11. CCc1nc(-c2ccccc2OC)n(-c2cccc(C(=O)NCCCCn3nccn3)c2)n1 :: 8.31
12. CCc1nc(-c2ccc(OC)cc2)n(-c2cccc(C(=O)NCCCCc3ccccn3)c2)n1 :: 3.24
13. CCc1nc(-c2ccc(Cl)cc2)n(-c2cccc(C(=O)NCCCCn3nccn3)c2)n1 :: 0.73
14. CCc1nc(-c2ncc(OC)cn2)n(-c2cccc(C(=O)NCCCCn3nccn3)c2)n1 :: 0.56

Reference source for all entries: ChEMBL document CHEMBL5356958
